# credit: patent US7169815B2

Test system: Brine Shrimp (Artemia Salina)
protocol-text: in vivo
condition-notes: as Table 7 shows

- chemical-string: "CCCCCCCCNC(=S)NCc1cccc(OC)c1"
  toxicity against brine shrimp, in words: "low toxicity"
- chemical-string: "C=CCNC(=S)NCc1cccc(OC)c1"
  toxicity against brine shrimp, in words: "low toxicity"

----------
protocol-text: Oxidative Stability by Rotating Pressure Vessel (RBOT) of refined meadowfoam seed oil plus thiourea compounds
condition-notes: Refined Meadowfoam Seed Oil plus 0.1% compound
Values of Oxidative Stability (RBOT) greater than or equal to 30 min map to label 1; values below map to label 0.

Known results for compounds:
- compound: "CCCCCCCCCCCCCCCCCCNC(=S)NCc1cccc(OC)c1 [1-(3-methoxybenzyl)-3-octadecyl thiourea]"
  discrete-label: "label 0"
- compound: "CCCCCCCCCCCCNC(=S)NCc1cccc(OC)c1 [1-(3-methoxybenzyl)-3-dodecyl thiourea]"
  discrete-label: "label 1"
- compound: "C=CCNC(=S)NCc1cccc(OC)c1"
  discrete-label: "label 0"
- compound: "CCCCCCCCNC(=S)NCc1cccc(OC)c1 [1-(3-methoxybenzyl)-3-octyl thiourea]"
  discrete-label: "label 1"
- compound: "COc1cccc(CNC(=S)NCc2cccc(OC)c2)c1 [1,3-di(3-methoxybenzyl) thiourea]"
  discrete-label: "label 1"

Is Oxidative Stability (RBOT) for COc1cccc(CNC(=S)NCc2ccccc2)c1 [1-(3-methoxybenzyl)-3-benzyl thiourea] at or above 30 min?
label 0

Another compound to look at: COc1ccc(C(=O)NC(=S)NCc2cccc(OC)c2)cc1
label 0

----------
Please provide measured log10(solubility at 4 h) for the entries that follow.
protocol-text: Solubility in refined meadowfoam seed oil (HPLC)
Format: physicochemical
condition-notes: oil or lipid, thermodynamic from solid, heated to 30° C. for 4 h, cooled to room temperature overnight, read-out: Solubility at 30° C.
A value of 2 here means solubility at 4 h of 100 in µg/mL, since values are log10.

- molecule: "COc1cccc(CNC(=S)NCc2cccc(OC)c2)c1 [1,3-di(3-methoxybenzyl) thiourea]"
  recorded-value: 3.39
- molecule: "CCCCCCCCNC(=S)NCc1cccc(OC)c1 [1-(3-methoxybenzyl)-3-octyl thiourea]"
  recorded-value: 3.49
- molecule: "CCCCCCCCCCCCNC(=S)NCc1cccc(OC)c1 [1-(3-methoxybenzyl)-3-dodecyl thiourea]"
  recorded-value: 3.02

Take each entry in turn and give its log10(solubility at 4 h).
1. C=CCNC(=S)NCc1cccc(OC)c1
2. COc1cccc(CNC(=S)NCc2ccccc2)c1 [1-(3-methoxybenzyl)-3-benzyl thiourea]
3. COc1ccc(C(=O)NC(=S)NCc2cccc(OC)c2)cc1
4. CCCCCCCCCCCCCCCCCCNC(=S)NCc1cccc(OC)c1 [1-(3-methoxybenzyl)-3-octadecyl thiourea]

3.22
3.02
3.44
2.45

----------
Please provide measured Decomposition Temperature for the entries that follow.
protocol-text: Decomposition temperature by differential scanning calorimetry
Format: physicochemical
condition-notes: DSC, onset of decrease in slope of temperature-heat flow curve; unit not given (scans in ° C.)

Take each entry in turn and give its Decomposition Temperature.
1. CCCCCCCCCCCCCCCCCCNC(=S)NCc1cccc(OC)c1
2. COc1cccc(CNC(=S)NCc2cccc(OC)c2)c1
3. CCCCCCCCCCCCNC(=S)NCc1cccc(OC)c1
4. C=CCNC(=S)NCc1cccc(OC)c1

["> 200 °C", "265 °C", "273 °C", "> 200 °C"]

Take each entry in turn and give its Decomposition Temperature.
1. COc1ccc(C(=O)NC(=S)NCc2cccc(OC)c2)cc1
2. COc1cccc(CNC(=S)NCc2ccccc2)c1
3. CCCCCCCCNC(=S)NCc1cccc(OC)c1

1: > 200 °C; 2: > 200 °C; 3: > 200 °C
